Cited source: the RepoRT retention time repository (doi:10.1016/j.jchromb.2020.122105)

Test Details: RP, Waters CORTECS T3, 100 × 2.1 mm, 2.7 µm, 0.3 mL/min, estimated dead time 0.73 min; A: water + 0.1% formic acid, pH 3; B: methanol + 0.1% formic acid, pH 3; gradient (min/%B) 0/0 5/0 25/100 30/100 30.1/0 35/0
Assay Conditions: stereoisomer not certain

Compound	Readout Units	LC retention time
N[C@@H](Cc1ccc(O)c(O)c1)C(=O)O [3,4-DIHYDROXY-L-PHENYLALANINE]	min	0.93
CC1NC(=O)NC1CCCCCC(=O)O (stereo not given)	min	13.2
CN1CCC[C@H]1c1cccnc1 [(S)-NICOTINE]	min	0.89
O=C(O)Cc1c[nH]c2ccc(O)cc12 [5-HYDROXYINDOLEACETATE]	min	10
O=c1cccc[nH]1 [2-HYDROXYPYRIDINE]	min	2.85
CC(=O)NC(CCCCN)C(=O)O (stereo not given)	min	0.89
CC12CCC(=O)C=C1CCC1C2C(O)CC2(C)C1CCC2(O)C(=O)CO (stereo not given)	min	17.3
CC(=O)NCCc1c[nH]c2ccc(O)cc12	min	10.4
O=C(O)C=Cc1cnc[nH]1 [UROCANATE]	min	0.91
Cc1ncc(C[n+]2csc(CCO)c2C)c(N)n1	min	0.89
Cc1cc2nc3[nH]c(=O)[nH]c(=O)c3nc2cc1C	min	15.3
CC(=O)OCC(=O)C1CCC2C3CCC4=CC(=O)CCC4(C)C3CCC12C (stereo not given) [DEOXYCORTICOSTERONE ACETATE]	min	20.8
CSCC1OC(n2cnc3c(N)ncnc32)C(O)C1O (stereo not given)	min	9.9
Nc1ccn(C2OC(CO)C3OP(=O)([O-])OC32)c(=O)n1 (stereo not given) [CYTIDINE 2',3'-CYCLIC MONOPHOSPHATE]	min	0.89
N[C@@H](Cc1ccc(O)c([N+](=O)[O-])c1)C(=O)O	min	7.98
NC(Cc1ccc(Oc2cc(I)c(O)c(I)c2)c(I)c1)C(=O)O (stereo not given)	min	17.9
CC(=O)N[C@H](Cc1c[nH]c2ccccc12)C(=O)O	min	13.2
NC(=O)Cc1c[nH]c2ccccc12 [INDOLE-3-ACETAMIDE]	min	11.1
O=C(O)c1cc(=O)c2ccccc2[nH]1 [4-HYDROXY-2-QUINOLINECARBOXYLIC ACID]	min	10.5
CNCCc1c[nH]c2ccccc12	min	9.75
